Tested on: mouse ischemic hind limb
assay.procedure: Mouse ischemic hind limb model, blood perfusion (Laser Doppler Imager)
Type: in vivo
condition.summary: 14 and 19 days following peptide injection, 10 μg
result.type: The blood perfusion ratio (in percentages) of the ischemic vs. control limbs, Mean

{"columns": ["sequence", "units.symbol", "numeric.value"],
 "data": [
  ["SAHGTSTGVPWP (Phage displayed peptide)", "percentages", 84.478],
  ["TLPWLEESYWRP (Phage displayed peptide) [TR]", "percentages", 86.006],
  ["QPWLEQAYYSTF (Phage displayed peptide) [QF]", "percentages", 112.222],
  ["VPWMEPAYQRFL (Phage displayed peptide) [VL]", "percentages", 95.560],
  ["YPHIDSLGHWRR (Phage displayed peptide) [YR]", "percentages", 104.349],
  ["LLADTTHHRPWT (Phage displayed peptide) [LT]", "percentages", 78.275]
]}

----------
Parameter: Physiological score (ability to climb a ladder) Day 7. Scope: all listed entries.
Test system: mouse ischemic hind limb
assay.procedure: Mouse ischemic hind limb model, physiological observations (ladder climbing)
Format: in vivo
Design: key: 1 = walk and climb ... 4 = walk with difficulty, cannot climb
condition.summary: mean score of 10 mice; scale 1-4; 10 μg; day 7 post operation
result.type: Physiological score (ability to climb a ladder) Day 7

{"columns": ["sequence", "numeric.value"],
 "data": [
  ["QPWLEQAYYSTF (Phage displayed peptide) [QF]", 1.6],
  ["LLADTTHHRPWT (Phage displayed peptide) [LT]", 1.6],
  ["YPHIDSLGHWRR (Phage displayed peptide) [YR]", 1.4],
  ["SAHGTSTGVPWP (Phage displayed peptide)", 1.75],
  ["TLPWLEESYWRP (Phage displayed peptide) [TR]", 1.6],
  ["VPWMEPAYQRFL (Phage displayed peptide) [VL]", 1.6]
]}

----------
Tested on: HIF-1α
assay.procedure: Real time PCR gene expression in MVECs, HIF-1α
Format: cell-based
Design: key: increased (+); non-increased (−)
condition.summary: 1 ng/ml peptide, 1.5 hours

{"columns": ["sequence", "HIF Expression after 1.5 hours"],
 "data": [
  ["LLADTTHHRPWT (Phage displayed peptide) [LT]", "−"],
  ["TLPWLEESYWRP (Phage displayed peptide) [TR]", "+"],
  ["YPHIDSLGHWRR (Phage displayed peptide) [YR]", "−"],
  ["QPWLEQAYYSTF (Phage displayed peptide) [QF]", "+"],
  ["VPWMEPAYQRFL (Phage displayed peptide) [VL]", "+"]
]}

----------
Test system: HIF-1α
assay.procedure: Real time PCR gene expression in MVECs, HIF-1α
Type: cell-based
Design: key: increased (+); non-increased (−)
condition.summary: 1 ng/ml peptide, 6 hours

{"columns": ["sequence", "HIF Expression after 6 hours"],
 "data": [
  ["VPWMEPAYQRFL (Phage displayed peptide) [VL]", "+"],
  ["LLADTTHHRPWT (Phage displayed peptide) [LT]", "−"],
  ["TLPWLEESYWRP (Phage displayed peptide) [TR]", "+"],
  ["QPWLEQAYYSTF (Phage displayed peptide) [QF]", "−"]
]}

----------
Test system: MVECs
assay.procedure: MVEC migration assay with synthetic peptides
Assay type: cell-based
condition.summary: 10 ng/ml, 5 hours
Description: MVEC migration was evaluated as described above except that MVECs from passage 3 were incubated in EBM-MV SFM. […] The presence of migratory cells was detected using the fluorescent ELISA reader at 480/520 nm (Fluostar BMG Lab Teck) as described in Example 2, hereinabove. […]
result.type: Increase in MVECs migration, peptides as chemoattractants

{"columns": ["sequence", "study.system", "result"],
 "data": [
  ["LLADTTHHRPWT (Phage displayed peptide) [LT]", "MVECs", "3.5 fold"],
  ["QPWLEQAYYSTF (Phage displayed peptide) [QF]", "MVECs", "2.4 fold"],
  ["SAHGTSTGVPWP (Phage displayed peptide)", "MVECs", "2 fold"],
  ["VPWMEPAYQRFL (Phage displayed peptide) [VL]", "MVECs", "2 fold"],
  ["YPHIDSLGHWRR (Phage displayed peptide) [YR]", "MVECs", "2.4 fold"],
  ["TLPWLEESYWRP (Phage displayed peptide) [TR]", "MVECs", "2 fold"]
]}

The reported measurements were obtained from patent US7473682B2.
